Item-by-item account of Cmax
assay: Pharmacokinetics assay in rats (intragastric and tail vein administration, plasma LC/MS/MS); type: in vivo; conditions: both sexes, Sprague-Dawley (SD), rat, plasma, po, 10 mg/kg, intragastric 10 mg/kg, 0.5% CMC-Na suspension, read-out: Cmax
Counter-ions that a name gives are not always drawn.
Could you write the number and then its unit?

Answered cases to consult:
compound=Cc1c(/C=C2\C(=O)Nc3ccc(F)cc32)[nH]c2c1C(=O)N(C[C@H](O)CN1CCOCC1)CCC2.O=C(O)C[C@H](O)C(=O)O observed_property=Cmax experimental_result="850 ng/mL"
compound=CC(O)C(=O)O.Cc1c(/C=C2\C(=O)Nc3ccc(F)cc32)[nH]c2c1C(=O)N(C[C@H](O)CN1CCOCC1)CCC2 observed_property=Cmax experimental_result="810 ng/mL"
compound=Cc1c(/C=C2\C(=O)Nc3ccc(F)cc32)[nH]c2c1C(=O)N(C[C@H](O)CN1CCOCC1)CCC2.Cl observed_property=Cmax experimental_result="500 ng/mL"

From here, focus on the item given below.
Looking up Cc1c(/C=C2\C(=O)Nc3ccc(F)cc32)[nH]c2c1C(=O)N(C[C@H](O)CN1CCOCC1)CCC2 [Example 4, mesylate] , I see its Cmax listed as 770 ng/mL

====

test: Pharmacokinetics assay in rats (intragastric and tail vein administration, plasma LC/MS/MS); type: in vivo; settings: both sexes, Sprague-Dawley (SD), rat, plasma, iv, Vein (tail vein injection) 10 mg/kg
Structures can show the parent of a compound that is named as a salt.
Listed next: entries and their corresponding half-life.
Give the number first and the unit second.

Example compounds with recorded half-life:
compound="Cc1c(/C=C2\\C(=O)Nc3ccc(F)cc32)[nH]c2c1C(=O)N(C[C@H](O)CN1CCOCC1)CCC2 [Example 4, mesylate]" experimental_result="5.97 h"
compound="CC(O)C(=O)O.Cc1c(/C=C2\\C(=O)Nc3ccc(F)cc32)[nH]c2c1C(=O)N(C[C@H](O)CN1CCOCC1)CCC2 [Example 3]" experimental_result="5.97 h"

Here is another compound to look at.
The reported value for Cc1c(/C=C2\C(=O)Nc3ccc(F)cc32)[nH]c2c1C(=O)N(C[C@H](O)CN1CCOCC1)CCC2.O=C(O)C[C@H](O)C(=O)O [Example 2] in terms of half-life is 5.97 h

====

assay: Pharmacokinetics assay in rats (intragastric and tail vein administration, plasma LC/MS/MS); format: in vivo; settings: both sexes, Sprague-Dawley (SD), rat, plasma, iv, Vein (tail vein injection) 10 mg/kg in physiological saline, read-out: AUC0-t
Structures can show the parent of a compound that is named as a salt.
Parameter: AUC(0-t). Scope: all listed entries.
Note: unit ng·h/mL is implicit; provide only the numeric part.

molecule="CC(O)C(=O)O.Cc1c(/C=C2\\C(=O)Nc3ccc(F)cc32)[nH]c2c1C(=O)N(C[C@H](O)CN1CCOCC1)CCC2 [Example 3]" observed_property=AUC(0-t) experimental_result=16100
molecule="Cc1c(/C=C2\\C(=O)Nc3ccc(F)cc32)[nH]c2c1C(=O)N(C[C@H](O)CN1CCOCC1)CCC2 [Example 4, mesylate]" observed_property=AUC(0-t) experimental_result=16100

Entry Cc1c(/C=C2\C(=O)Nc3ccc(F)cc32)[nH]c2c1C(=O)N(C[C@H](O)CN1CCOCC1)CCC2.O=C(O)C[C@H](O)C(=O)O [Example 2] ; AUC(0-t) = 16100

Where do these numbers come from? They come from patent US20120295887A1.
